src = paper PMC2096529

Tested On: human P2Y4 receptor (Homo sapiens, UniProt P51582)
Sequence (P51582 whole entry): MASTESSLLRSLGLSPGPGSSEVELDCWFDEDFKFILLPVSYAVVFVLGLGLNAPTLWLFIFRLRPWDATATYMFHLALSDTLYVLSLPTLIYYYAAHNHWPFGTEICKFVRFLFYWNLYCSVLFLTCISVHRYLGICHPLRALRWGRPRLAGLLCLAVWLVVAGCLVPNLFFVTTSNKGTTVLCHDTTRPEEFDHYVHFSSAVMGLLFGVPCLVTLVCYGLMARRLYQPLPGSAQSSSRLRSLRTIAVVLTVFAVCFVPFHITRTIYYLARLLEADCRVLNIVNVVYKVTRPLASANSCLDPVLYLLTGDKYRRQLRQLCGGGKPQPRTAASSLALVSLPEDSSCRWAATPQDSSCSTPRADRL
Procedure Text: Fluo-3 calcium mobilization, FLIPR, […]1 cells
Measured Attribute: EC50 (nM)
Answer format: numeric, nM implied, no suffix.

Q) I'd like to know its EC50. The molecule in question is Nc1ccn([C@@H]2O[C@H](COP(=O)(O)OP(=O)(O)OP(=O)(O)OP(=O)(O)OC[C@H]3O[C@@H](n4ccc(=O)[nH]c4=O)[C@H](O)[C@@H]3O)[C@@H](O)[C@@H]2O)c(=O)n1 [compound 50, UP4araC]
A) 220

Q) Now consider Nc1ncnc2c1ncn2[C@@H]1O[C@H](COP(=O)(O)OP(=O)(O)OP(=O)(O)OP(=O)(O)OC[C@H]2O[C@@H](n3ccc(=O)[nH]c3=O)[C@H](O)[C@@H]2O)[C@@H](O)[C@H]1O [compound 40, AP4U] and answer again.
A) 1450

Q) Now consider Nc1ccn([C@H]2C[C@H](O)[C@@H](COP(=O)(O)OP(=O)(O)OP(=O)(O)OP(=O)(O)OC[C@H]3O[C@@H](n4ccc(=O)[nH]c4=O)[C@H](O)[C@@H]3O)O2)c(=O)n1 [compound 51, UP4dC] and answer again.
A) 1220

Q) Now consider O=c1[nH]cnc2c1ncn2[C@@H]1O[C@H](COP(=O)(O)OP(=O)(O)OC[C@H]2O[C@@H](n3cnc4c(=O)[nH]cnc43)[C@H](O)[C@@H]2O)[C@@H](O)[C@H]1O [compound 22, IP2I] and answer again.
A) 5060

Q) Now consider Nc1ccn([C@@H]2O[C@H](COP(=O)(O)OP(=O)(O)OP(=O)(O)OP(=O)(O)OC[C@H]3O[C@@H](n4ccc(=S)[nH]c4=O)[C@H](O)[C@@H]3O)[C@@H](O)[C@H]2O)c(=O)n1 [compound 55, CP44-thioU] and answer again.
A) 110

Q) Now consider Nc1nc2c(ncn2[C@H]2C[C@H](O)[C@@H](COP(=O)(O)OP(=O)(O)OP(=O)(O)OC[C@H]3O[C@@H](n4ccc(=O)[nH]c4=O)[C@H](O)[C@@H]3O)O2)c(=O)[nH]1 [compound 34, UP3dG] and answer again.
A) 1980

----------
Tested On: human P2Y1 receptor (Homo sapiens, UniProt P47900)
Sequence (P47900 whole entry): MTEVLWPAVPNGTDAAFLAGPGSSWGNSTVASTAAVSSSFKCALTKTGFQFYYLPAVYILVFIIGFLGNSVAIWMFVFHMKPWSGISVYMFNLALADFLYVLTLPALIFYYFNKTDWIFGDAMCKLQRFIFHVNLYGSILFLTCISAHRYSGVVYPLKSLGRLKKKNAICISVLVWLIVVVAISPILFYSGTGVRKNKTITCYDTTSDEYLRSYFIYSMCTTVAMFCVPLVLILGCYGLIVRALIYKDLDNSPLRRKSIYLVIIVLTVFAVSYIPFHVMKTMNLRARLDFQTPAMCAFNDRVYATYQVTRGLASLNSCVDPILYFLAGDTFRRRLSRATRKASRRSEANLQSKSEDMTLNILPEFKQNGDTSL
Procedure Text: Fluo-3 calcium mobilization, FLIPR, […]1 cells
pEC50: −log10 of the molar value.
pEC50 of 6 or higher: 1. Under 6: 0.

Q) Determine whether this molecule has pEC50 no lower than 6: `Nc1ccn([C@@H]2O[C@H](COP(=O)(O)OP(=O)(O)OP(=O)(O)OC[C@H]3O[C@@H](n4ccc(=O)[nH]c4=O)C[C@@H]3O)[C@@H](O)[C@H]2O)c(=O)n1`
A) 0

Q) Now consider `Nc1ncnc2c1ncn2[C@@H]1O[C@H](COP(=O)(O)OP(=O)(O)OC[C@H]2O[C@@H](n3ccc(=O)[nH]c3=O)[C@H](O)[C@@H]2O)[C@@H](O)[C@H]1O` and answer again.
A) 0

Q) Now consider `Nc1ncnc2c1ncn2[C@@H]1O[C@H](COP(=O)(O)OP(=O)(O)OP(=O)(O)OC[C@H]2O[C@@H](n3cnc4c(N)ncnc43)[C@H](O)[C@@H]2O)[C@@H](O)[C@H]1O` and answer again.
A) 1

Q) Now consider `Nc1ncnc2c1ncn2[C@@H]1O[C@H](COP(=O)(O)OP(=O)(O)OP(=O)(O)OP(=O)(O)OC[C@H]2O[C@@H](n3cnc4c(=O)[nH]cnc43)[C@H](O)[C@@H]2O)[C@@H](O)[C@H]1O` and answer again.
A) 1

Q) Now consider `Nc1ccn([C@@H]2O[C@H](COP(=O)(O)OP(=O)(O)OP(=O)(O)OC[C@H]3O[C@@H](n4cnc5c(N)ncnc54)[C@H](O)[C@@H]3O)[C@@H](O)[C@H]2O)c(=O)n1` and answer again.
A) 1
